assay: qHTS assay to test for compound auto fluorescence at 535 nm (green) in HEK293 cell free culture (AID 720682); details: cell-free medium, green autofluorescence 485/535 nm; series mostly up to 91.3 µM
Calls of active or inactive are those of the source. Calls follow the shape of the dose curve; as a rule, active = well fitted curve in the direction sought with a large enough effect in the repeat runs; inconclusive = weak or mixed curves; inactive = flat fitted curve, though single readings scatter.
Readout: outcome

Use these answered entries as a reference point.
INSERT INTO results (compound, reported_measurement) VALUES
  ('C=CC(=O)NC(C)(C)CS(=O)(=O)O', 'inactive'),
  ('COc1cc(C=O)ccc1O', 'inactive'),
  ('O=C(OCc1ccccc1)c1ccccc1', 'inactive'),
  ('CC(C)(C)NCC(O)c1ccc(O)c(CO)c1 (stereo unspecified)', 'inactive'),
  ('NC(=O)NO', 'inactive');

The compound listed as "NC(=O)N/N=C/c1ccc([N+](=O)[O-])o1" shows outcome equal to inactive

According to the records, this compound CC(C)CC(C)CC(O)CC(C)C (stereo unspecified) displays outcome of inactive

outcome reported for this compound "Oc1cccc(O)c1" : inactive

Where do the numbers come from? From PubChem BioAssay (Tox21).
